# target of assay: Histone deacetylase 1 (Homo sapiens)
# Sequence (Q13547 whole entry, the tested form may be a part): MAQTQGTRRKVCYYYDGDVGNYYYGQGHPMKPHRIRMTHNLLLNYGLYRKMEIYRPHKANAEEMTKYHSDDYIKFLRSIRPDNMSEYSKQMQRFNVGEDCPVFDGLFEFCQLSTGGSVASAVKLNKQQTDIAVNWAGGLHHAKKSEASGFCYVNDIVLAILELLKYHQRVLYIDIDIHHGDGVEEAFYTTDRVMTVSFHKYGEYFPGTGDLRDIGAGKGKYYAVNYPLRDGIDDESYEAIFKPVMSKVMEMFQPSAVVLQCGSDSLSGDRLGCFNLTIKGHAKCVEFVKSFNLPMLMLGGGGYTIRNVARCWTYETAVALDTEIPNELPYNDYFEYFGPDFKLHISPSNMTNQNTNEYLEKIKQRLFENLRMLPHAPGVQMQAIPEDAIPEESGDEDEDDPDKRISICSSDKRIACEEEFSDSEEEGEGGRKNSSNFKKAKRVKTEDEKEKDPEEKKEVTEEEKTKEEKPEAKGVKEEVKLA
# assay text: Inhibition of human HDAC1 at 1 uM using p53 (379 to 382 residues) derived fluorogenic peptide RHKKAc
measure name: inhibition

Consider the worked cases shown below.
>>> df
                                   molecule  measure_name  endpoint_value
0  CC(C)(C(=O)Nc1ccc(C(=O)Nc2ccccc2N)cc1)c1ccccc1    inhibition             49%
1  CC(C)[C@@H](C(=O)Nc1ccc(C(=O)Nc2ccc(C(F)(F)F)cc2N)cc1)c1ccccc1    inhibition              6%

What value of inhibition has been reported for the following molecule? CC(C)[C@H](C(=O)Nc1ccc(C(=O)NO)cc1)c1ccccc1
95%

Param item = CC(C)[C@@H](C(=O)Nc1ccc(C(=O)Nc2ccccc2N)cc1)c1ccccc1 ; retrieve measured inhibition.
80%

// inhibition lookup, key: CC(C)(C(=O)Nc1ccc(C(=O)Nc2ccc(F)cc2N)cc1)c1ccccc1
8%

Consider the molecule CC(C)[C@H](C(=O)Nc1ccc(C(=O)Nc2ccccc2N)cc1)c1ccccc1 and give its measured inhibition.
55%

Query: inhibition; subject: Nc1cc(F)ccc1NC(=O)c1ccc(NC(=O)C2CC2c2ccccc2)cc1 (stereo unspecified)
0%

Would you kindly share the measured inhibition for Nc1ccccc1NC(=O)c1ccc(NC(=O)Cc2ccc(C(F)(F)F)cc2)cc1 ?
78%

Which value of inhibition has been reported for Nc1cc(F)ccc1NC(=O)c1ccc(NC(=O)Cc2ccc(C(F)(F)F)cc2)cc1 in the records?
41%

What does the data say about its inhibition? Entry: CC(C)[C@@H](C(=O)Nc1ccc(C(=O)Nc2ccc(F)cc2N)cc1)c1ccccc1
42%

These data points were gathered from ChEMBL document CHEMBL4130443.
